# procedure-text: Cmax in Sprague-Dawley CD-1 rat plasma at 3 mg/kg, po administered as cassette dose via gavage measured up to 24 hrs by LC/MS analysis
# Type: ADME, organism-based
# Parameters: dose 3 mg/kg, route oral
measure: Cmax (ng/mL)

{"structure-smiles": "Cc1cnc(C(=O)[C@]23Cc4cnn(-c5ccc(F)cc5)c4C=C2CCN(S(=O)(=O)c2ccc(Cl)c(Cl)c2)C3)s1", "numeric-value": 30}
{"structure-smiles": "N#Cc1cccc(S(=O)(=O)N2CCC3=Cc4c(cnn4-c4ccc(F)cc4)C[C@]3(C(=O)c3cc(C(F)(F)F)ccn3)C2)c1", "numeric-value": 20}
{"structure-smiles": "Cn1cc(S(=O)(=O)N2CCC3=Cc4c(cnn4-c4ccc(F)cc4)C[C@]3(C(=O)c3cc(C(F)(F)F)ccn3)C2)cn1", "numeric-value": 262}

This collection of values is drawn from ChEMBL document CHEMBL4049426.
